What CYP3A4 RIS was measured for each of the following?
- System: CYP3A4
- Setup conditions: upcyte Donor 10-03; mean of two experiments
Answer as a number with no unit attached.

The reported value for CCC1(c2ccccc2)C(=O)NC(=O)NC1=O in terms of CYP3A4 RIS is 0.685

The reported value for O=C1NC(=O)C(c2ccccc2)(c2ccccc2)N1 in terms of CYP3A4 RIS is 1.970

The reported value for CCc1ccc(CCOc2ccc(CC3SC(=O)NC3=O)cc2)nc1 (stereo not drawn) in terms of CYP3A4 RIS is 0.0079

====

What CYP2B6 Indmax was measured for each of the following?
- Test system: CYP2B6
- Setup conditions: upcyte Donor 422A-03; mean from two experiments
// note: answer is a bare numeric in fold

The reported value for NC(=O)N1c2ccccc2C=Cc2ccccc21 [Carbamazepine, carbamazepine] in terms of CYP2B6 Indmax is 4.3

The reported value for Cc1c(C)c2c(c(C)c1O)CCC(C)(COc1ccc(CC3SC(=O)NC3=O)cc1)O2 (stereo not drawn) [Troglitazone, troglitazone] in terms of CYP2B6 Indmax is 5.0

The reported value for O=C1NC(=O)C(c2ccccc2)(c2ccccc2)N1 [Phenytoin, phenytoin] in terms of CYP2B6 Indmax is 4.0

The reported value for CCc1ccc(CCOc2ccc(CC3SC(=O)NC3=O)cc2)nc1 (stereo not drawn) [Pioglitazone, pioglitazone] in terms of CYP2B6 Indmax is 3.6

The reported value for CCC1(c2ccccc2)C(=O)NC(=O)NC1=O [Phenobarbital, phenobarbital] in terms of CYP2B6 Indmax is 7.3

The reported value for CO[C@H]1/C=C/O[C@@]2(C)Oc3c(C)c(O)c4c(O)c(c(/C=N/N5CCN(C)CC5)c(O)c4c3C2=O)NC(=O)/C(C)=C\C=C\[C@H](C)[C@H](O)[C@@H](C)[C@@H](O)[C@@H](C)[C@H](OC(C)=O)[C@@H]1C [Rifampicin, rifampicin] in terms of CYP2B6 Indmax is 7.8

====

- Assayed system: CYP3A4 (Homo sapiens)
- Sequence (P08684 whole entry): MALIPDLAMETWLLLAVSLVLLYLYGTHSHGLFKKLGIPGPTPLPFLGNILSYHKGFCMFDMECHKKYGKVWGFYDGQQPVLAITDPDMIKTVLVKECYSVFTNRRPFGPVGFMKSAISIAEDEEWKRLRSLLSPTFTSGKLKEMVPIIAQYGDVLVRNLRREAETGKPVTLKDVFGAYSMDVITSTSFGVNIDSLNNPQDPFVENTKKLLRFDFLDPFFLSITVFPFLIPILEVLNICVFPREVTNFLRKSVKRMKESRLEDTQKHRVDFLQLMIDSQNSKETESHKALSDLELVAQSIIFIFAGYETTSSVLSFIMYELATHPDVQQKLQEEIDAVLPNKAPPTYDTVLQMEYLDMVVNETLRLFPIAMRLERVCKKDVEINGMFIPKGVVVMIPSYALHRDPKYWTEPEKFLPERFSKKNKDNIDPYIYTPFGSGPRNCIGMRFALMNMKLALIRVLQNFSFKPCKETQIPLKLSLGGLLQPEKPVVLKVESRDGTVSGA
- Experimental details: in vitro
- Setup conditions: upcyte hepatocytes, probe midazolam (5 μmol/L), percentage inhibition, CYP3A4, 1′OH-MID +1′OH-MID-G, 1 mmol/L ABT, Donor 653-03, 24 h, Lab 2
Measurement type: inhibition at 24 h, 1 mmol/L (%)
// note: answer is a bare numeric in %

The reported value for Nn1nnc2ccccc21 [ABT, 1-aminobenzotriazole] in terms of inhibition at 24 h, 1 mmol/L is 98

====

- Assayed system: CYP2B6 (Homo sapiens, UniProt P20813)
- Experimental details: in vitro
- Setup conditions: hepatocytes, percentage inhibition, CYP2B6, OH-Bup, 1 mmol/L ABT, Donor 151-03, 0–6 h, Lab 2
Measurement type: inhibition at 1 mmol/L (%)
// note: answer is a bare numeric in %

The reported value for Nn1nnc2ccccc21 in terms of inhibition at 1 mmol/L is 85

====

- Test system: CYP3A4
- Setup conditions: upcyte Donor 10-03; mean of two experiments
Measurement type: CYP3A4 RIS
Answer as a number with no unit attached.

The reported value for NC(=O)N1c2ccccc2C=Cc2ccccc21 [Carbamazepine, carbamazepine] in terms of CYP3A4 RIS is 2.675

The reported value for Cc1c(C)c2c(c(C)c1O)CCC(C)(COc1ccc(CC3SC(=O)NC3=O)cc1)O2 (stereo not shown) in terms of CYP3A4 RIS is 0.083

====

- Assayed system: CYP1A2 (Homo sapiens)
- Sequence (P05177 1-516): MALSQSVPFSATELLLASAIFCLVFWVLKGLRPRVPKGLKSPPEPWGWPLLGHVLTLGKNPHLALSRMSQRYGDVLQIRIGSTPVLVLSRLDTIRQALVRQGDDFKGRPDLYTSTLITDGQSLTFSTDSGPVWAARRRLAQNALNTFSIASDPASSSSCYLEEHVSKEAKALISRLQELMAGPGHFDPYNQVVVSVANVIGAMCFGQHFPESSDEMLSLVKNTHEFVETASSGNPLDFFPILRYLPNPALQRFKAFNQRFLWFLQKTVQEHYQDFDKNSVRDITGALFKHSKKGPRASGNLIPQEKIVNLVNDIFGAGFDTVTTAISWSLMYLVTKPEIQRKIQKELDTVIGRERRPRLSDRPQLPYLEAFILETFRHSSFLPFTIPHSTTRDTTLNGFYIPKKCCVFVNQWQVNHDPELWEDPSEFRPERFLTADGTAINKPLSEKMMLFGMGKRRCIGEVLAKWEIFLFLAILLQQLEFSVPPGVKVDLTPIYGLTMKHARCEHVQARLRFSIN
- Experimental details: CYP1A2 inhibition in upcyte hepatocytes over 24 h
- Assay type: in vitro ADME
- Setup conditions: probe phenacetin (5 μmol/L), percentage inhibition, CYP1A2, APAP, 1 mmol/L ABT, Donor 151-03, 0–6 h, Lab 2
Measurement type: inhibition at 1 mmol/L
Answer by giving the amount and then stating its unit.

The reported value for Nn1nnc2ccccc21 in terms of inhibition at 1 mmol/L is 100%

====

- Assayed system: CYP2B6 (Homo sapiens, UniProt P20813)
- Sequence (P20813 1-491): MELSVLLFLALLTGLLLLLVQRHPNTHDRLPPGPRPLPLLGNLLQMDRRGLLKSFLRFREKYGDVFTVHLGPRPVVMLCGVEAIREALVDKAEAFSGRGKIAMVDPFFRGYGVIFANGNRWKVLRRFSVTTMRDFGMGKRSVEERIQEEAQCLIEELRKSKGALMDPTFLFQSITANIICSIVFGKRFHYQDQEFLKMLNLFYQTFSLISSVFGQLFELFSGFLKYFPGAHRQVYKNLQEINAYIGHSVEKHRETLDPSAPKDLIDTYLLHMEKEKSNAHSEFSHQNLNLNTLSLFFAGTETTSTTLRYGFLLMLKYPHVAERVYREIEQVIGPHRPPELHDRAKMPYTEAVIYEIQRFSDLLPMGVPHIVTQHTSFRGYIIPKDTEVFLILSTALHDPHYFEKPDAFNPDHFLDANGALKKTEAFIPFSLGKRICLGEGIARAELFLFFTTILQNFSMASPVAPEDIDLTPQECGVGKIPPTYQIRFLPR
- Experimental details: in vitro
- Setup conditions: hepatocytes, percentage inhibition, CYP2B6, OH-Bup, 1 mmol/L ABT, Donor 422A-03, 24 h, Lab 2
Measurement type: inhibition at 24 h, 1 mmol/L (%)
// note: answer is a bare numeric in %

The reported value for Nn1nnc2ccccc21 in terms of inhibition at 24 h, 1 mmol/L is 94

====

- Test system: CYP2B6
- Setup conditions: upcyte Donor 422A-03; relative to positive control phenobarbital, equation 2
What CYP2B6 % PB was measured for each of the following?
// note: answer is a bare numeric in %

The reported value for CCC1(c2ccccc2)C(=O)NC(=O)NC1=O in terms of CYP2B6 % PB is 100

The reported value for CCc1ccc(CCOc2ccc(CC3SC(=O)NC3=O)cc2)nc1 (stereo not drawn) in terms of CYP2B6 % PB is 42

The reported value for CO[C@H]1/C=C/O[C@@]2(C)Oc3c(C)c(O)c4c(O)c(c(/C=N/N5CCN(C)CC5)c(O)c4c3C2=O)NC(=O)/C(C)=C\C=C\[C@H](C)[C@H](O)[C@@H](C)[C@@H](O)[C@@H](C)[C@H](OC(C)=O)[C@@H]1C in terms of CYP2B6 % PB is 108

The reported value for O=C1NC(=O)C(c2ccccc2)(c2ccccc2)N1 in terms of CYP2B6 % PB is 48

The reported value for Cc1c(C)c2c(c(C)c1O)CCC(C)(COc1ccc(CC3SC(=O)NC3=O)cc1)O2 (stereo not drawn) in terms of CYP2B6 % PB is 63

The reported value for NC(=O)N1c2ccccc2C=Cc2ccccc21 [Carbamazepine, carbamazepine] in terms of CYP2B6 % PB is 52

====

- Assayed system: CYP2C9 (Homo sapiens)
- Sequence (P11712 whole entry): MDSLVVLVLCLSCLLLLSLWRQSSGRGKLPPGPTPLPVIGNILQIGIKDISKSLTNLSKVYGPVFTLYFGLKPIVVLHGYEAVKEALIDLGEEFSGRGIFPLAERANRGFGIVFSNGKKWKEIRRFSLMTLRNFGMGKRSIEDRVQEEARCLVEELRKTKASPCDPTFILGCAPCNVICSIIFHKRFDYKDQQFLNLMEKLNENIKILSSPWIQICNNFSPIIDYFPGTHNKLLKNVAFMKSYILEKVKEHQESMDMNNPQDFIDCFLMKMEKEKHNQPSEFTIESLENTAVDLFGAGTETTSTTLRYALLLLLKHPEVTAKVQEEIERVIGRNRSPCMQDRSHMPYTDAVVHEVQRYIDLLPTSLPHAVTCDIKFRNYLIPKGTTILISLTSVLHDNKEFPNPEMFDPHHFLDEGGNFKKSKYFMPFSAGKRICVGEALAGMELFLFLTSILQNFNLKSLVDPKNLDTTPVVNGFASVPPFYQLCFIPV
- Experimental details: CYP2C9 inhibition in upcyte hepatocytes over 24 h
- Type: in vitro ADME
- Setup conditions: probe tolbutamide (5 μmol/L), percentage inhibition, CYP2C9, OH-Tolb, 1 mmol/L ABT, Donor 653-03, 0–6 h, Lab 2
Measurement type: inhibition at 1 mmol/L (%)
// note: answer is a bare numeric in %

The reported value for Nn1nnc2ccccc21 in terms of inhibition at 1 mmol/L is 95

====

- Assayed system: CYP1A2 (Homo sapiens, UniProt P05177)
- Experimental details: CYP1A2 inhibition in upcyte hepatocytes over 24 h
- Assay type: in vitro ADME
- Setup conditions: probe phenacetin (5 μmol/L), percentage inhibition, CYP1A2, APAP, 1 mmol/L ABT, Donor 422A-03, 24 h, Lab 2
Measurement type: inhibition at 24 h, 1 mmol/L (%)
// note: answer is a bare numeric in %

The reported value for Nn1nnc2ccccc21 [ABT, 1-aminobenzotriazole] in terms of inhibition at 24 h, 1 mmol/L is 98
